Assayed system: 17-beta-hydroxysteroid dehydrogenase type 2 (Homo sapiens)
Assay protocol: Inhibition of [3H]E2 binding to human placental 17beta-HSD2 at 1 uM after 20 mins
Measure name: inhibition

Consider the following illustrative entries.
INSERT INTO assay_data (item_smiles, assayed_system, value) VALUES
  ('COc1ccncc1-c1ccc2c(O)cccc2c1', '17-beta-hydroxysteroid dehydrogenase type 2 (Homo sapiens)', '< 10%'),
  ('CS(=O)(=O)Nc1ccc(-c2ccc(CO)cc2)cc1', '17-beta-hydroxysteroid dehydrogenase type 2 (Homo sapiens)', '< 10%'),
  ('CC(=O)Nc1cccc(-c2ccc(O)cc2)c1', '17-beta-hydroxysteroid dehydrogenase type 2 (Homo sapiens)', '< 10%');

Need inhibition for each of these compounds.
1. Oc1cccc2cc(-c3ccc(F)cc3)ccc12
2. O=C(O)c1ccc(-c2ccc3c(O)cccc3c2)cc1
3. Oc1cccc2cc(-c3ccccc3)ccc12
4. Oc1cccc2cc(-c3ccoc3)ccc12
5. O=[N+]([O-])c1ccc(-c2ccc3c(O)cccc3c2)cc1
6. COc1cccc(CC(=O)N(C)c2cccc(-c3ccc(CO)cc3)c2)c1
7. CNS(=O)(=O)c1ccc(-c2ccc3c(O)cccc3c2)cc1

1: < 10%; 2: 16%; 3: 20%; 4: 13%; 5: 13%; 6: 12%; 7: 57%

Need inhibition for each of these compounds.
1. CN(C(=O)c1ccccc1)c1cccc(-c2ccc(CO)cc2)c1
2. O=C(Nc1cccc(-c2ccc(CO)cc2)c1)c1ccccc1
3. Oc1ccc2cc(-c3ccccc3O)ccc2c1
4. COc1ccc(CC(=O)N(C)c2cccc(-c3ccc(CO)cc3)c2)cc1

1. < 10%
2. < 10%
3. < 10%
4. < 10%

Need inhibition for each of these compounds.
1. CC(=O)c1ccc(-c2ccc3c(O)cccc3c2)cc1
2. COc1ccc(-c2cccc(N(C)C(=O)Cc3cccc(OC)c3)c2)cc1

< 10%
< 10%

* * *

Hi there, I'd appreciate the recorded inhibition for every entry that follows.
Assayed system: 17-beta-hydroxysteroid dehydrogenase type 1 (Homo sapiens)
Assay protocol: Inhibition of [3H]E1 binding to human placental 17beta-HSD1 at 1 uM after 20 mins

Consider the following illustrative entries.
INSERT INTO assay_data (item_smiles, assayed_system, value) VALUES
  ('Oc1cccc2cc(-c3ccncc3)ccc12', '17-beta-hydroxysteroid dehydrogenase type 1 (Homo sapiens)', '< 10%'),
  ('COc1ccncc1-c1ccc2c(O)cccc2c1', '17-beta-hydroxysteroid dehydrogenase type 1 (Homo sapiens)', '< 10%'),
  ('CN(C(=O)Cc1cccc(O)c1)c1cccc(-c2ccc(O)cc2)c1', '17-beta-hydroxysteroid dehydrogenase type 1 (Homo sapiens)', '< 10%'),
  ('CNC(=O)c1ccc(-c2ccc3c(O)cccc3c2)cc1', '17-beta-hydroxysteroid dehydrogenase type 1 (Homo sapiens)', '< 10%'),
  ('Cc1cccc(S(=O)(=O)Nc2ccc(-c3ccc(O)cc3)cc2)c1', '17-beta-hydroxysteroid dehydrogenase type 1 (Homo sapiens)', '< 10%');

Need inhibition for each of these compounds.
1. O=C(Nc1cccc(-c2ccc3c(O)cccc3c2)c1)c1ccccc1
2. CN(C(=O)c1ccccc1)c1cccc(-c2ccc(CO)cc2)c1
3. COc1ccc(CC(=O)N(C)c2cccc(-c3ccc(OC)cc3)c2)cc1

1: < 10%; 2: < 10%; 3: 25%

* * *

Assayed system: 17-beta-hydroxysteroid dehydrogenase type 1 (Homo sapiens) (UniProt P14061)
Sequence (P14061 whole entry): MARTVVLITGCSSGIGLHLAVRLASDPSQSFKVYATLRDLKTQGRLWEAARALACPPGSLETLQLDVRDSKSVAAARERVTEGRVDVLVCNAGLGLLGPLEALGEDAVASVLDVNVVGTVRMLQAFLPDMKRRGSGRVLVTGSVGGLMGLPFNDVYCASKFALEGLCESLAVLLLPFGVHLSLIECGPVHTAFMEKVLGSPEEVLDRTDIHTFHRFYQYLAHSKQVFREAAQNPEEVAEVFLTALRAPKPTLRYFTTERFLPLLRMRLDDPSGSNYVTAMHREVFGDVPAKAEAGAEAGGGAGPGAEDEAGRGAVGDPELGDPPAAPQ
Assay protocol: Inhibition of [3H]E1 binding to human placental 17beta-HSD1 at 1 uM after 20 mins
Measure name: inhibition

Consider the following illustrative entries.
INSERT INTO results (item_smiles, value) VALUES
  ('CS(=O)(=O)Nc1ccc(-c2ccc(O)cc2)cc1', '< 10%'),
  ('CC(=O)Nc1cccc(-c2ccc3c(O)cccc3c2)c1', '12%'),
  ('Cc1cccc(S(=O)(=O)Nc2ccc(-c3ccc(CO)cc3)cc2)c1', '< 10%'),
  ('COc1ccc(C(=O)N(C)c2cccc(-c3ccc(OC)cc3)c2)cc1', '< 10%'),
  ('Oc1cccc2cc(-c3cncnc3)ccc12', '< 10%'),
  ('O=C(O)c1ccc(-c2ccc3c(O)cccc3c2)cc1', '< 10%');

Need inhibition for each of these molecules.
1. CS(=O)(=O)Nc1cccc(-c2ccc3c(O)cccc3c2)c1
2. Oc1cccc2cc(-c3ccc(F)cc3)ccc12

1: 19%; 2: < 10%

Need inhibition for each of these molecules.
1. COc1cccc(C(=O)N(C)c2cccc(-c3ccc(CO)cc3)c2)c1
2. CN(C(=O)c1ccccc1)c1cccc(-c2ccc(O)cc2)c1

< 10%
< 10%
